Reference source: patent US20080132505A1

This listing pairs compounds with measured EC50.
molecular target: human cannabinoid CB2 receptor (Homo sapiens); assay: Cannabinoid CB2 receptor agonist activity (yeast reporter assay, FDGlu fluorescence); format: cell-based; conditions: EC50 value at the cloned human cannabinoid CB2 receptor
Sequence (P34972 whole entry): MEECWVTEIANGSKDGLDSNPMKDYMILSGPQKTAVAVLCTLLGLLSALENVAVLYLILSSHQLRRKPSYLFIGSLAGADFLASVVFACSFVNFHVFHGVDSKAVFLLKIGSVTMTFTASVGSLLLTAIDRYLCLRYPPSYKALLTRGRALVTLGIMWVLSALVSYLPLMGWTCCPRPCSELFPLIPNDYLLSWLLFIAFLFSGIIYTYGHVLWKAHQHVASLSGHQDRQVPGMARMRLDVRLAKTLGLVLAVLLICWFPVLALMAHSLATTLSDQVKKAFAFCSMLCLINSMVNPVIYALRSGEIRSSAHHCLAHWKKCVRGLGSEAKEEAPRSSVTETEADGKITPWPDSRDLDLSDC

Recorded EC50, per entry:
>  <compound>
O=C(NCC1CCCCC1)c1cnc(Nc2cccc(Cl)c2)nc1C(F)(F)F [Example 4]

>  <EC50>
20 to 300 nM

$$$$
>  <compound>
O=C(NCC1CCC1)c1cnc(Nc2ccc(F)cc2C(F)(F)F)nc1C(F)(F)F [Example 101]

>  <EC50>
300 to 1000 nM

$$$$
>  <compound>
O=C(NCc1ccc(F)cc1)c1cnc(Nc2cccc(F)c2)nc1C(F)(F)F [Example 288]

>  <EC50>
20 to 300 nM

$$$$

Recorded result, O=C(NCC1CCCCC1)c1cnc(Nc2cc(Br)cc(C(F)(F)F)c2)nc1C(F)(F)F [Example 91] , EC50: 300 to 1000 nM

Entry O=C(NCc1ccncc1)c1cnc(Nc2cccc(F)c2)nc1C(F)(F)F [Example 285] — recorded EC50 = 20 to 300 nM

// field: EC50; key: O=C(NC1CCCC1)c1cnc(Nc2cccc(Br)c2)nc1C(F)(F)F [Example 207] ; value = 20 to 300 nM

The value of EC50 measured for the compound Cc1ccc(Cl)cc1Nc1ncc(C(=O)NCC2CCOCC2)c(C(F)(F)F)n1 [Example 108] turned out to be 300 to 1000 nM

// EC50 lookup, compound = O=C(NCc1ccccc1)c1cnc(Nc2c(Cl)cccc2Cl)nc1C(F)(F)F [Example 363] , result: 20 to 300 nM

Quick note, EC50 for N#Cc1ccc(Nc2ncc(C(=O)NCc3ccc(F)cc3)c(C(F)(F)F)n2)cc1Cl [Example 351] landed at 20 to 300 nM

Just so you know, measured EC50 for O=C(NCc1ccnc(F)c1)c1cnc(Nc2cc(Cl)cc(Cl)c2)nc1C(F)(F)F [Example 356] came out at 20 to 300 nM

Recorded EC50 (compound O=C(NCc1ccc(F)c(F)c1)c1cnc(Nc2cccc(Cl)c2)nc1C(F)(F)F [Example 346] ): 20 to 300 nM

// O=C(NCc1ccc(F)cc1)c1cnc(Nc2cc(Cl)cc(Cl)c2)nc1C(F)(F)F [Example 290] : EC50 value = 20 to 300 nM

Entry under test: O=C(NCc1ccc(F)cc1)c1cnc(Nc2cc(Cl)ccc2F)nc1C(F)(F)F [Example 349] . Its EC50 was 20 to 300 nM

The reported value for O=C(NCC1CCCC1)c1cnc(Nc2cc(F)ccc2Cl)nc1C(F)(F)F [Example 249] in terms of EC50 is 20 to 300 nM

Reported EC50 ( O=C(NCC1CCCCC1)c1cnc(Nc2cccc(F)c2F)nc1C(F)(F)F [Example 242] ) = 20 to 300 nM

What the record says about N#Cc1ccc(Nc2ncc(C(=O)NCC3CCCC3)c(C(F)(F)F)n2)cc1 [Example 176] : EC50 is 20 to 300 nM

Note to self: EC50 recorded for O=C(NCC1CCC1)c1cnc(Nc2ccc(Cl)cc2Cl)nc1C(F)(F)F [Example 201] was 20 to 300 nM

Record COc1cccc(Nc2ncc(C(=O)NC3CCCC3)c(C(F)(F)F)n2)c1 [Example 76] . Reported EC50: 300 to 1000 nM

Sample O=C(NCC1CCC1)c1cnc(Nc2ccc(C(F)(F)F)c(F)c2)nc1C(F)(F)F [Example 196] ; EC50 observed: 20 to 300 nM

For reference, reported EC50 for O=C(NCc1ccc(F)cc1)c1cnc(Nc2ccc(F)c(Cl)c2)nc1C(F)(F)F [Example 347] stands at 20 to 300 nM
